biological target: T1, HBsAg of HBV genotype A (AY934772) (Hepatitis B virus); test: sandwich ELISA, captured HBsAg from culture supernatant
T1 construct: captured from supernatant by horse polyclonal anti-HBsAg
measureName: IC50 (nM)
Just the number in nM, nothing appended.

GET /values?readout=IC50&item= NOV3837 (antibody, human IgG1, kappa, V domains shown, Full human IgG1 (kappa) expressed in CHO cells) VH: QVQLQESGGRLVRPGGSLRLSCAASGFIFTDYYMTWIRQAPGKGPEWIAFITSGGETTYYADSVKGRFTISRDNAKKSLFLQMYSLRADDTAVYYCVRAHFDGYQYDTRGDFTYYFDNWGLGTLVSVSS VL: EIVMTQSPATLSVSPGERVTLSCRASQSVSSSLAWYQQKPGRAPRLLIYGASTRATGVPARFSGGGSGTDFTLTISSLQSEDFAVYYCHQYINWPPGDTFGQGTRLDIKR 0.093

GET /values?readout=IC50&item= NOV3838 (antibody, human IgG1, kappa, V domains shown, Full human IgG1 (kappa) expressed in CHO cells) VH: QVQLQESGGRLVRPGGSLRLSCAASGFIFTDYYMTWIRQAPGKGPEWIAFITSGGETTYYADSVKGRFTISRDNAKKSLFLQMYSLRADDTAVYYCVRAHFDLYQYDTRGDFTYYFDNWGLGTLVSVSS VL: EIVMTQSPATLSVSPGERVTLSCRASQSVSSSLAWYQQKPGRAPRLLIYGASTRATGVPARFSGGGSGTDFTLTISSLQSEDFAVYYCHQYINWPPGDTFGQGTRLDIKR 0.2

src = patent US20240317840A1
